Exercise: for every item that follows, state its recorded EC50.
target: CLK2 kinase (Homo sapiens, UniProt P49760); assay: CLK2 kinase activity assay (Z-lyte FRET); details: Z-lyte Ser/Thr 6 peptide, 60 μM ATP, 1 h at room temperature
Sequence (P49760 whole entry): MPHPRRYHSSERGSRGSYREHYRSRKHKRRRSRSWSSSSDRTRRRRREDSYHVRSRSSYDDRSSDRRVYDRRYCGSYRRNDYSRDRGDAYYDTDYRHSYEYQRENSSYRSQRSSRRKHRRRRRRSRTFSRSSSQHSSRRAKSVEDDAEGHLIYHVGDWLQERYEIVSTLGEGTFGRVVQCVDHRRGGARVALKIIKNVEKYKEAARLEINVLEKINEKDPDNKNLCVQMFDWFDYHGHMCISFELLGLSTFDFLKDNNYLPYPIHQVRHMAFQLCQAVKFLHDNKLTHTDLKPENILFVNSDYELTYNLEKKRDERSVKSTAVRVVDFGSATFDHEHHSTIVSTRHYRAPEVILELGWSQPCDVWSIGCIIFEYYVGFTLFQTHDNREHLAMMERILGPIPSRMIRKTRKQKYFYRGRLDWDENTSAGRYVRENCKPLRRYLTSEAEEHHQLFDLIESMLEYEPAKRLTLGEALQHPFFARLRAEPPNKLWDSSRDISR
API: value field is a number in nM; no unit string.

What EC50 value was documented for this compound, O=C(Nc1cncc(-c2cc3c(-c4cc5cccnc5[nH]4)n[nH]c3cn2)c1)C1CC1 [compound 427] ?
9

// query EC50 value for entry CC1CCN(Cc2cncc(-c3ccc4[nH]nc(C(=O)Nc5cccnc5)c4c3)c2)CC1 [compound 98]
1

Given the compound CC(C)CC(=O)Nc1cncc(-c2cc3c(-c4nc5c(-c6ccoc6)cccc5[nH]4)n[nH]c3cn2)c1 [compound 233] , what is its reported EC50?
8

What does the data say about its EC50? Entry: CCC(=O)Nc1cncc(-c2ccc3[nH]nc(-c4nc5c(-c6ccsc6)cncc5[nH]4)c3c2)c1 [compound 244]
16

Need EC50, item CN(C)CCOc1cc(C(=O)Nc2cc3cc(-c4cnn(C)c4)ccc3cn2)ccn1 [compound 544]
2

Tell me the measured EC50 of CN(C)CCOc1cncc(-c2cc3c(-c4cc5c(-c6ccc(F)cc6)nccc5[nH]4)n[nH]c3cn2)c1 [compound 318] , please.
19

Data request, read-out EC50, for Cc1nnc(C(=O)Nc2cc3cc(-c4cncn4C)ccc3cn2)s1 [compound 584]
6

Bench note: what EC50 did CC(C)C(=O)Nc1cncc(-c2cc3c(-c4cc5c(N6CCN(C)CC6)cccc5[nH]4)n[nH]c3cn2)c1 [compound 474] show?
17

Can you share its EC50? I mean this compound: CN(C)CCNc1cc(F)cc(-c2cccc3[nH]c(-c4n[nH]c5ncc(-c6ccncc6)cc45)cc23)c1 [compound 635]
10

Can you share its EC50? I mean this compound: O=C(Nc1cncc(-c2ccc3[nH]nc(-c4cc5c(-c6cccnc6)nccc5[nH]4)c3c2)c1)c1ccccc1 [compound 357]
3

# input compound: CC(C)CC(=O)Nc1cncc(-c2ccc3[nH]nc(-c4nc5c(-c6cccnc6)cncc5[nH]4)c3c2)c1 [compound 189] ; wanted: its EC50
8

Which EC50 value is on record for O=C(Nc1cncc(-c2ccc3[nH]nc(-c4cc5c(-c6ccccc6F)nccc5[nH]4)c3n2)c1)C1CC1 [compound 330] ?
12

If you can, please state the reported EC50 value of Cc1ccncc1-c1ccc2[nH]nc(-c3cc4c(-c5cccnc5)cncc4[nH]3)c2n1 [compound 346] .
4

Endpoint output: EC50 of CN(C)Cc1cncc(-c2cc3c(-c4cc5c(-c6ccncc6)cncc5[nH]4)n[nH]c3cn2)c1 [compound 399] . Value?
4

State the recorded EC50 for this entry: CS(=O)(=O)NCc1cc(F)cc(-c2nccc3[nH]c(-c4n[nH]c5cnc(-c6cncc(CNCC7CCCC7)c6)cc45)cc23)c1 [compound 534]
4

====

So I've got a bunch of compounds here, and I need their EC50 values.
target: CLK2 kinase (Homo sapiens, UniProt P49760); assay: CLK2 kinase activity assay (Z-lyte FRET); assay type: biochemical; details: Z-lyte Ser/Thr 6 peptide, 60 μM ATP, 1 h at room temperature
Write it as a number; the unit nM goes unstated.

Reported EC50, compound O=C(Nc1cnccn1)c1n[nH]c2ccc(-c3cncc(CN4CCCCCC4)c3)cc12 [compound 99] : ____
2

Would you mind telling me what EC50 value was observed for O=C(Nc1cncc(-c2cc3c(-c4nc5c(-c6cccs6)nccc5[nH]4)n[nH]c3cn2)c1)C1CC1 [compound 257] ?
7

What value of measured EC50 is listed for CN1CCN(c2cc(C(=O)Nc3cc4cc(-c5cnn(C)c5)c(F)cc4cn3)ccn2)CC1 [compound 546] ?
2

Name the recorded EC50 for CN1CC2CCC(C1)N2C(=O)Nc1cc2cc(-c3cnn(C)c3)ccc2cn1 [compound 638] .
1130

Requested read-out: EC50. Entry: CN(C)Cc1cncc(-c2ccc3[nH]nc(-c4nc5c(-c6cccc(F)c6)cncc5[nH]4)c3n2)c1 [compound 139]
3

Can you look up the measured EC50 of CCN(C)Cc1cncc(-c2cnc3[nH]nc(-c4nc5c(-c6cccc(F)c6)cncc5[nH]4)c3c2)c1 [compound 140] for me?
2

I would be grateful if you could share the reported EC50 for Cc1n[nH]c2ccc(-c3cncc(N[C@H]4CC[C@H](O)CC4)n3)cc12 [compound 43] .
1

I would be grateful if you could share the reported EC50 for O=C(Nc1cncc(-c2cnc3[nH]nc(-c4cc5cnccc5[nH]4)c3c2)c1)c1ccccc1 [compound 435] .
2

====

target: CLK2 kinase (Homo sapiens, UniProt P49760); assay: CLK2 kinase activity assay (Z-lyte FRET); conditions: Z-lyte Ser/Thr 6 peptide, 60 μM ATP, 1 h at room temperature;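 also: FRET read-out as coumarin to fluorescein emission ratio, unphosphorylated peptide as 0% and phosphorylated peptide as 100% controls, duplicate reactions, non-linear regression fit of dose-response curves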
Measured Attribute: EC50
A complete answer gives the number and then names the unit.

Test system CLK2 kinase (Homo sapiens, UniProt P49760); read-out EC50; what value for `CCNCc1cncc(-c2ccc3[nH]nc(-c4cc5ccccc5[nH]4)c3c2)c1` ?
4 nM

Lookup: EC50 / CLK2 kinase (Homo sapiens, UniProt P49760) / `Cc1n[nH]c2ccc(-c3cc(OC[C@H](N)Cc4ccccc4)cnn3)cc12`
19 nM

# get_value(readout= EC50, system= CLK2 kinase (Homo sapiens, UniProt P49760)) for `Cc1nnc(-c2ccc3cnc(NC(=O)c4ccnc(C5CCN(C)CC5)c4)cc3c2)s1`
2 nM

Param readout = EC50; param system = CLK2 kinase (Homo sapiens, UniProt P49760); param query = `FC1(F)CCN(Cc2cncc(-c3cc4c(-c5nc6c(N7CCCCC7)cncc6[nH]5)n[nH]c4cn3)c2)C1` ; response: value
5 nM

====

Give pEC50 for every item shown.
target: CLK2 kinase (Homo sapiens); experiment: CLK2 kinase activity assay (Z-lyte FRET); settings: Z-lyte Ser/Thr 6 peptide, 60 μM ATP, 1 h at room temperature
Convention used: pEC50 is expressed as -log10 of the molar concentration.

Quick one: pEC50 for `CN1CCN(c2cncc3[nH]c(-c4n[nH]c5ccc(-c6cncc(NC(=O)CC(C)(C)C)c6)cc45)cc23)CC1` ?
8.40

Name the recorded pEC50 for `CC(C)CC(=O)Nc1cncc(-c2cnc3[nH]nc(-c4cc5c(-c6cc(F)cc(CNS(C)(=O)=O)c6)cncc5[nH]4)c3c2)c1` .
8.05

Fill blank: measured pEC50 of the compound `CCCCC(=O)Nc1cncc(-c2cnc3[nH]nc(-c4cc5c(-c6ccncc6)cncc5[nH]4)c3c2)c1` is ____.
8.10

Consider the compound shown here: `CN1CCN(c2ccc(C(=O)N3CCN(c4cc(C(=O)Nc5cc6cc(-c7cnn(C)c7)ccc6cn5)ccn4)CC3)cn2)CC1` What is its recorded pEC50?
8.70

====

target: CLK3 kinase (Homo sapiens, UniProt P49761); experiment: CLK3 kinase activity assay (Z-lyte FRET); details: Z-lyte Ser/Thr 18 peptide, 156 μM ATP, 1 h at room temperature
Sequence (P49761 whole entry): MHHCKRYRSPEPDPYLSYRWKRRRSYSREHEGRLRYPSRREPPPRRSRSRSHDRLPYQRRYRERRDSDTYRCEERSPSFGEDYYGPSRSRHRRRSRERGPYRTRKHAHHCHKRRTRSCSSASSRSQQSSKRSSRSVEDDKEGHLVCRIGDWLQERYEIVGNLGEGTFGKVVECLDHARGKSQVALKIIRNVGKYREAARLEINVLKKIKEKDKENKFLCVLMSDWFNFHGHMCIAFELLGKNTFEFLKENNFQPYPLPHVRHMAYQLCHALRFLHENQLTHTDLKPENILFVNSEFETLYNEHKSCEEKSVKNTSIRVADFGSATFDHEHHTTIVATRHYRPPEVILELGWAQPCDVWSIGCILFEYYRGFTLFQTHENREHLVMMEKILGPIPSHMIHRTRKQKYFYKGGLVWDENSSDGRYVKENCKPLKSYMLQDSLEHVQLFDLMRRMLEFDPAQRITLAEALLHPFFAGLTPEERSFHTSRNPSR
So I've got a bunch of compounds here, and I need their EC50 values.
Quick note: give the figure in nM, leave out the unit.

Return reported EC50; argument: CN1CCN(c2ccc(C(=O)Nc3cc4cc(-c5cnn(C)c5)ccc4cn3)cn2)CC1 [compound 542]
36

Which EC50 reading was recorded for the compound `CC(C)NC(=O)c1n[nH]c2ccc(-c3cncc(CN4CCC(F)(F)CC4)c3)cc12` ?
4020

Request the reported EC50 associated with `COc1cccc(-c2ccnc3[nH]c(-c4n[nH]c5ccc(-c6cccnc6)nc45)nc23)c1`
84

Entry `Cc1ccncc1-c1cc2c(-c3cc4cnccc4[nH]3)n[nH]c2cn1` : reported EC50 = ?
61

// lookup EC50 for `c1cncc(-c2ccnc3[nH]c(-c4n[nH]c5ncc(-c6cncc(CN7CCCCC7)c6)cc45)cc23)c1`
69

Please look up its EC50: `CN(C)Cc1cncc(-c2cnc3[nH]nc(-c4nc5c(-c6ccsc6)cccc5[nH]4)c3c2)c1`
67

Requested field: EC50. Item: `CN1CCN(c2cc(C(=O)Nc3cc4cc(-c5cnn(C6CC6)c5)ccc4cn3)ccn2)CC1`
71

Need EC50 of `CNc1nc(NCc2ncccn2)c2c(-c3ccc4ncccc4c3)c[nH]c2n1` , thanks.
26

====

target: CLK3 kinase (Homo sapiens, UniProt P49761); assay: CLK3 kinase activity assay (Z-lyte FRET); conditions: Z-lyte Ser/Thr 18 peptide, 156 μM ATP, 1 h at room temperature;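 also: kinase activity read as coumarin/fluorescein emission ratio by FRET, unphosphorylated peptide as 0% and phosphorylated peptide as 100% control, values from non-linear regression of dose-response curves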
Kindly state log10 EC50 for each of the entries shown.
Plainly stated, the numbers are log10 of EC50 given in nM.

Query: log10 EC50; subject: `O=C(Nc1cncc(-c2cnc3[nH]nc(-c4cc5c(-c6ccncc6)cncc5[nH]4)c3c2)c1)C1CCC1`
1.84

I'd like to know its log10 EC50. The compound in question is `c1cc2[nH]c(-c3n[nH]c4ncc(-c5cncc(CN6CCCCC6)c5)cc34)cc2cn1`
1.72

Returns the measured log10 EC50 for the input compound. Input: `CN1CCN(c2ccnc3[nH]c(-c4n[nH]c5cnc(-c6cncc(CNCC7CCCC7)c6)cc45)cc23)CC1`
2.53

Looking for the measured log10 EC50 of `COc1cncc(C(=O)Nc2c[nH]nc2C(=O)Nc2ccc(N3CCNCC3)nc2)c1` , can you help?
3.37

Recorded log10 EC50 of `FC1(F)CCN(Cc2cncc(-c3ccc4[nH]nc(-c5cc6cccnc6[nH]5)c4n3)c2)C1` , please.
1.57

Returns the measured log10 EC50 for the input compound. Input: `c1cncc(-c2ccc3[nH]nc(-c4nc5c(N6CCOCC6)cncc5[nH]4)c3c2)c1`
1.79

# input compound: `CN1CCN(c2nccc3[nH]c(-c4n[nH]c5ccc(-c6cncc(N)c6)nc45)nc23)CC1` ; wanted: its log10 EC50
2.54

I'd like to know its log10 EC50. The compound in question is `Cc1cc(-c2ccc3[nH]nc(C(=O)Nc4ccc(OC5CCN(C)CC5)cc4)c3c2)sn1`
2.17

Looking for the measured log10 EC50 of `O=C(Nc1ccc(CN2CCCC2)cc1)c1n[nH]c2ccc(-c3cncnc3)cc12` , can you help?
3.16

// returns reported log10 EC50 for input `CC(C)C(=O)Nc1cncc(-c2cc3c(-c4cc5c(N6CCN(C)CC6)cccc5[nH]4)n[nH]c3cn2)c1`
3.31

What value of measured log10 EC50 is listed for `O=C(Nc1ccc(CN2CCCC2)cc1)c1n[nH]c2ccc(-c3cnccn3)cc12` ?
2.58

Field request: log10 EC50 | item: `CC(C)(C)C(=O)Nc1cncc(-c2ccc3[nH]nc(-c4nc5c(N6CCCCC6)cncc5[nH]4)c3c2)c1`
1.97

Fill blank: measured log10 EC50 of the compound `CN(C)c1cncc(-c2ccc3[nH]nc(-c4nc5c(-c6cccc(F)c6)ccnc5[nH]4)c3n2)c1` is ____.
1.57

Record request: log10 EC50 value, item `CCNCc1cncc(-c2ccc3[nH]nc(-c4nc5c(-c6ccccn6)nccc5[nH]4)c3c2)c1`
2.13

// query log10 EC50 value for entry `CC(C)(C)C(=O)Nc1cncc(-c2cc3c(-c4cc5c(-c6ccncc6)cncc5[nH]4)n[nH]c3cn2)c1`
1.96
